Origin of the recorded values: ChEMBL document CHEMBL4699639

# System: SH-SY5Y
# ASSAY PROTOCOL: Cytotoxicity against human SH-SY5Y cells assessed as reduction in cell viability at 25 uM incubated for 24 hrs by Celltiter-blue assay
# Type: cell-based
PARAMETER: Activity

Observe how each entry below is paired with its result.
[
  {
    "STRUCTURE SMILES": "O=C1C(Cl)=C(NCc2ccccc2)C(=O)c2ccccc21",
    "STUDY SYSTEM": "SH-SY5Y",
    "PARAMETER": "Activity",
    "RESULT": "Toxic"
  },
  {
    "STRUCTURE SMILES": "COC1=C(Nc2cccc(C(F)(F)F)c2)C(=O)c2ccccc2C1=O",
    "STUDY SYSTEM": "SH-SY5Y",
    "PARAMETER": "Activity",
    "RESULT": "Non-Toxic"
  },
  {
    "STRUCTURE SMILES": "CNC1=C(Nc2ccccc2)C(=O)c2ccccc2C1=O",
    "STUDY SYSTEM": "SH-SY5Y",
    "PARAMETER": "Activity",
    "RESULT": "Non-Toxic"
  },
  {
    "STRUCTURE SMILES": "CCCCNC1=C(Cl)C(=O)c2ccccc2C1=O",
    "STUDY SYSTEM": "SH-SY5Y",
    "PARAMETER": "Activity",
    "RESULT": "Toxic"
  },
  {
    "STRUCTURE SMILES": "CCOC1=C(Nc2ccccc2)C(=O)c2ccccc2C1=O",
    "STUDY SYSTEM": "SH-SY5Y",
    "PARAMETER": "Activity",
    "RESULT": "Non-Toxic"
  },
  {
    "STRUCTURE SMILES": "O=C(OC1=C(c2ccccc2)C(=O)c2ccccc2C1=O)c1cccc([N+](=O)[O-])c1",
    "STUDY SYSTEM": "SH-SY5Y",
    "PARAMETER": "Activity",
    "RESULT": "Toxic"
  },
  {
    "STRUCTURE SMILES": "CC1=C(Nc2ccc(F)c(C(F)(F)F)c2)C(=O)c2ccccc2C1=O",
    "STUDY SYSTEM": "SH-SY5Y",
    "PARAMETER": "Activity",
    "RESULT": "Non-Toxic"
  },
  {
    "STRUCTURE SMILES": "O=C1C(Nc2ccc(F)c(C(F)(F)F)c2)=C(SC(F)(F)F)C(=O)c2ccccc21",
    "STUDY SYSTEM": "SH-SY5Y",
    "PARAMETER": "Activity",
    "RESULT": "Toxic"
  }
]

Would you mind listing Activity for each of the following molecules?
1. CC(C)SC1=C(Nc2cccc(C(F)(F)F)c2)C(=O)c2ccccc2C1=O
2. CSC1=C(Nc2cc(C(F)(F)F)ccc2F)C(=O)c2ccccc2C1=O
3. O=C1C(Nc2cccc(C(F)(F)F)c2)=C(SC(F)(F)F)C(=O)c2ccccc21

Response:
["Toxic", "Non-Toxic", "Toxic"]

Would you mind listing Activity for each of the following molecules?
1. COC1=C(Nc2cc(C(F)(F)F)ccc2F)C(=O)c2ccccc2C1=O
2. CC1=C(SC(C)(C)C)C(=O)c2ccccc2C1=O

Response:
1. Non-Toxic
2. Toxic
